All figures here come from the RNAGym collection of RNA variant scans (doi:10.7554/elife.80360).

Hi there, I'd appreciate the recorded self-cleavage for every entry that follows.
B1: HDV Ribozyme (parent)
chain: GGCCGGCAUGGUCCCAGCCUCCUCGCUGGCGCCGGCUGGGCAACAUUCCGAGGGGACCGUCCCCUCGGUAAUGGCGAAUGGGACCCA

- Variants of: B1
- protocolNotes: self-cleavage, relative activity (ratio to wild type); higher = more cleavage; co-transcriptional

What self-cleavage value was documented for this variant, U20C U46A ?
0.317

What self-cleavage value was documented for this variant, C57G C84U ?
0.721

What self-cleavage value was documented for this variant, C33G A78U ?
0.0875

What self-cleavage value was documented for this variant, G6A C75A ?
0.17

What self-cleavage value was documented for this variant, G31U U46C ?
0.306

What self-cleavage value was documented for this variant, G17C U72A ?
0

What self-cleavage value was documented for this variant, G81U C84G ?
0.0923

What self-cleavage value was documented for this variant, A16G G55U ?
0.914

What self-cleavage value was documented for this variant, G40U C85A ?
0.427

What self-cleavage value was documented for this variant, G10C G39C ?
0.359

What self-cleavage value was documented for this variant, C3A A43U ?
0.191

What self-cleavage value was documented for this variant, C21A C32A ?
0.17

What self-cleavage value was documented for this variant, G31A U65G ?
0.34

What self-cleavage value was documented for this variant, G6U G34A ?
0.208

What self-cleavage value was documented for this variant, C30G C41G ?
0.0707

What self-cleavage value was documented for this variant, C13U G73A ?
0.128

What self-cleavage value was documented for this variant, U23A A83U ?
0.449

What self-cleavage value was documented for this variant, G11C C21A ?
0.0755

What self-cleavage value was documented for this variant, C22G A71G ?
0.0573

What self-cleavage value was documented for this variant, G10C U69C ?
1.21

What self-cleavage value was documented for this variant, G34C G52U ?
0.155

What self-cleavage value was documented for this variant, G53A U60G ?
1.01

What self-cleavage value was documented for this variant, C30A G68A ?
0.411

What self-cleavage value was documented for this variant, C24A G80A ?
0.131

What self-cleavage value was documented for this variant, G1A C30U ?
0.0554

What self-cleavage value was documented for this variant, G6U C63G ?
0.268

What self-cleavage value was documented for this variant, G34A A45G ?
0.199

What self-cleavage value was documented for this variant, C48U A71C ?
0.789

What self-cleavage value was documented for this variant, C58A A71C ?
0.831

What self-cleavage value was documented for this variant, G10A A83G ?
0.258

What self-cleavage value was documented for this variant, G2A C41U ?
0.198

What self-cleavage value was documented for this variant, G55A G59A ?
1.13

What self-cleavage value was documented for this variant, C75U G76A ?
0.0852

What self-cleavage value was documented for this variant, U20A C44U ?
0

What self-cleavage value was documented for this variant, C36U C85G ?
0.799

What self-cleavage value was documented for this variant, C14A C84G ?
0.623

What self-cleavage value was documented for this variant, U12A C33A ?
0.0604

What self-cleavage value was documented for this variant, C19U U47C ?
0.111

What self-cleavage value was documented for this variant, U46C C58A ?
0.554

What self-cleavage value was documented for this variant, G74A C85A ?
0.657

What self-cleavage value was documented for this variant, G6A A56C ?
0.571

What self-cleavage value was documented for this variant, G28A A70G ?
0.032

What self-cleavage value was documented for this variant, G1U U27G ?
0.522

What self-cleavage value was documented for this variant, A51G C75G ?
0.128

What self-cleavage value was documented for this variant, G39C A45C ?
0.198

What self-cleavage value was documented for this variant, A51G A87U ?
0.952
